# protocol-description: Rat pharmacokinetic test
# Assay type: in vivo, SD rats
# assay-conditions: both sexes, Sprague-Dawley (SD), rat, plasma, po; SD rats, multiple gavage, 30 mg/kg once per day for 7 days
recorded-endpoint: Cmax at 7 days (ng/mL)
Write the number in ng/mL without appending the unit.

# input Which measured Cmax at 7 days value corresponds to O=C(O)C[S+]([O-])c1cc(NS(=O)(=O)c2ccc(Br)cc2)c2ccccc2c1O (stereo not shown) [Embodiment 4] ?
# output 5900

* * *

# protocol-description: Rat pharmacokinetic test
# Format: in vivo, SD rats
# assay-conditions: both sexes, Sprague-Dawley (SD), rat, plasma; SD rats, single intravenous injection, 10 mg/kg
recorded-endpoint: half-life (h)
Form entry: value (h) — number only.

# input Requested field: half-life. Item: O=C(O)C[S+]([O-])c1cc(NS(=O)(=O)c2ccc(Br)cc2)c2ccccc2c1O (stereo not shown)
# output 2.26

* * *

# protocol-description: Rat pharmacokinetic test
# Type: in vivo, SD rats
# assay-conditions: both sexes, Sprague-Dawley (SD), rat, plasma, iv, 10 mg/kg, SD rats, single intravenous injection
recorded-endpoint: AUC(0-inf) (µg·h/mL)
Answer format: numeric, µg·h/mL implied, no suffix.

# input Tell me the measured AUC(0-inf) of O=C(O)C[S+]([O-])c1cc(NS(=O)(=O)c2ccc(Br)cc2)c2ccccc2c1O (stereo not shown) [Embodiment 4] , please.
# output 113

* * *

# protocol-description: Rat pharmacokinetic test
# Type: in vivo, SD rats
# assay-conditions: both sexes, Sprague-Dawley (SD), rat, plasma, po; SD rats, single gavage, 90 mg/kg; median (min, max)
recorded-endpoint: Tmax

# input Would you kindly share the measured Tmax for O=C(O)C[S+]([O-])c1cc(NS(=O)(=O)c2ccc(Br)cc2)c2ccccc2c1O (stereo not shown) ?
# output 1 h

* * *

# protocol-description: Solubility in FaSSIF, FeSSIF, water and SGF
# Format: physicochemical
# assay-conditions: thermodynamic from solid; Water, 24 h
recorded-endpoint: solubility at 24 h (µg/mL)
Number only, in µg/mL; omit the unit.

# input Please report the recorded solubility at 24 h for O=C(O)C[S+]([O-])c1cc(NS(=O)(=O)c2ccc(Br)cc2)c2ccccc2c1O (stereo not shown) .
# output 3870

* * *

# protocol-description: Rat pharmacokinetic test
# Assay type: in vivo, SD rats
# assay-conditions: both sexes, Sprague-Dawley (SD), rat, plasma; SD rats, single intravenous injection, 10 mg/kg; read-out: MRT0-24 h
recorded-endpoint: MRT last (h)
Kindly answer with a numeric value in h, unit omitted.

# input For the molecule shown here, O=C(O)C[S+]([O-])c1cc(NS(=O)(=O)c2ccc(Br)cc2)c2ccccc2c1O (stereo not shown) , give the reported MRT last.
# output 2

* * *

# protocol-description: Rat pharmacokinetic test
# Type: in vivo, SD rats
# assay-conditions: both sexes, SD, rat, plasma, po, 30 mg/kg, SD rats, single gavage
recorded-endpoint: AUC(0-inf) (ng·h/mL)
// note: answer is a bare numeric in ng·h/mL

# input Would you kindly share the measured AUC(0-inf) for O=C(O)C[S+]([O-])c1cc(NS(=O)(=O)c2ccc(Br)cc2)c2ccccc2c1O (stereo not shown) ?
# output 22800

* * *

# protocol-description: Solubility in FaSSIF, FeSSIF, water and SGF
# Type: physicochemical
# assay-conditions: thermodynamic from solid; Water, 2 h
recorded-endpoint: solubility at 2 h (µg/mL)
Numbers only; they are read as µg/mL.

# input What value of solubility at 2 h has been recorded for this entry: O=C(O)C[S+]([O-])c1cc(NS(=O)(=O)c2ccc(Br)cc2)c2ccccc2c1O (stereo not shown)
# output 4190
